Each recorded value in this set is attributed to patent US20140186344A1.

Biological target: T1, Dahl R Dear S44P/M74T variant (rat Dual Endothelin-1/Angiotensin II Receptor) (rat (Dahl R/JRHsd), UniProt D3ZGZ6 1-127)
T1 construct: It was assayed as membranes of transfected Cos1 cells and as kidney membranes on blots; also called Dahl R receptor; Cos1-R
T1 chain: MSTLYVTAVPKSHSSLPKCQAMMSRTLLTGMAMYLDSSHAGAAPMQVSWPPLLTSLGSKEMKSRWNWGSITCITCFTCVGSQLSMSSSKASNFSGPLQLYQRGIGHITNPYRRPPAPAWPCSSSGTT
Experiment: saturation radioligand binding, Cos1 membranes; KL, low affinity binding site; the column head says nM, and the unit is doubtful
pKd: −log10 of the molar value. No end group written: not given here. *: point of attachment. 125I = [125I]*
endpoint_name: pKd

INSERT INTO assay_data (binder, numeric_value) VALUES
  ('CSCSSLMDKECVY(125I)FCHLDIIW (peptide, UniProt P05305 53-73, looked up, ends and bridges not checked, mature; Radiolabelled ligand; also called ET-1) [[125I]Tyr13-endothelin-1]', 9.08);
